assay: Plasma drug levels one hour post dose in rat (PO dose); assay type: ADME, organism-based; conditions: read-out: Plasma level
Listing: concentration at 1 h of selected compounds
attribute-measured: concentration at 1 h

{"columns": ["compound", "reported-value"],
 "data": [
  ["NC(=O)N(O)C/C=C/c1ccco1", "166 µM"],
  ["CNC(=O)N(O)C(C)c1cc2ccccc2s1 (centres undefined)", "31 µM"],
  ["Cc1ccsc1CN(O)C(N)=O", "107 µM"],
  ["CC(c1ccc(-c2cccs2)s1)N(O)C(N)=O (centres undefined)", "6 µM"],
  ["NC(=O)N(O)Cc1ccoc1", "148 µM"],
  ["CC(c1ccc(/C=C/c2ccccc2)o1)N(O)C(N)=O (centres undefined)", "19 µM"],
  ["CC(c1ccc(-c2ccccc2)s1)N(O)C(N)=O (centres undefined)", "43 µM"],
  ["CC(C1CC1c1ccco1)N(O)C(N)=O (centres undefined)", "86 µM"],
  ["CC(c1cc2ccccc2s1)N(O)C(=O)NCc1ccccc1 (centres undefined)", "2.1 µM"],
  ["CC(c1cc2ccccc2s1)N(O)C(=O)NC(N)=O (centres undefined)", "4.6 µM"],
  ["CC(c1ccc(CC(=O)NCc2ccccc2)o1)N(O)C(N)=O (centres undefined)", "33 µM"],
  ["Cc1cc(C(C)N(O)C(N)=O)c(C)o1 (centres undefined)", "33.5 µM"],
  ["CC(c1cc2ccccc2s1)N(O)C(=O)NO (centres undefined)", "15.9 µM"],
  ["Cc1ccc(/C=C/C(C)N(O)C(N)=O)o1 (centres undefined)", "55 µM"]
]}

---

assay: t1/2 in monkey after PO dose ([…] umol/kg); format: ADME, organism-based; conditions: simiiformes, in vivo, 2 umol/kg

{"columns": ["compound", "half-life"],
 "data": [
  ["CC(/C(F)=C/c1ccc(Oc2ccc(F)cc2)o1)N(O)C(N)=O (centres undefined)", "2.4 h"],
  ["C[C@H](C#Cc1ccc(Cc2ccc(F)cc2)s1)N(O)C(N)=O", "15 h"],
  ["CC(/C=C/c1ccc(Oc2ccc(F)cc2)o1)N(O)C(N)=O (centres undefined)", "2.8 h"],
  ["CC(C#Cc1ccc(Oc2ccc(F)cc2)o1)N(O)C(N)=O (centres undefined)", "7.4 h"]
]}

---

experiment: The half life period in monkey at 1.6 (micro mol/kg) dose by peroral administration.; format: ADME, organism-based; details: simiiformes, in vivo, po

{"columns": ["smiles-data", "half-life (h)"],
 "data": [
  ["NC(=O)N(O)CCO/N=C/c1ccc(Oc2ccc(F)cc2)o1", 1.6]
]}

---

Target: Polyunsaturated fatty acid 5-lipoxygenase (Homo sapiens, UniProt P09917)
Sequence (P09917 whole entry): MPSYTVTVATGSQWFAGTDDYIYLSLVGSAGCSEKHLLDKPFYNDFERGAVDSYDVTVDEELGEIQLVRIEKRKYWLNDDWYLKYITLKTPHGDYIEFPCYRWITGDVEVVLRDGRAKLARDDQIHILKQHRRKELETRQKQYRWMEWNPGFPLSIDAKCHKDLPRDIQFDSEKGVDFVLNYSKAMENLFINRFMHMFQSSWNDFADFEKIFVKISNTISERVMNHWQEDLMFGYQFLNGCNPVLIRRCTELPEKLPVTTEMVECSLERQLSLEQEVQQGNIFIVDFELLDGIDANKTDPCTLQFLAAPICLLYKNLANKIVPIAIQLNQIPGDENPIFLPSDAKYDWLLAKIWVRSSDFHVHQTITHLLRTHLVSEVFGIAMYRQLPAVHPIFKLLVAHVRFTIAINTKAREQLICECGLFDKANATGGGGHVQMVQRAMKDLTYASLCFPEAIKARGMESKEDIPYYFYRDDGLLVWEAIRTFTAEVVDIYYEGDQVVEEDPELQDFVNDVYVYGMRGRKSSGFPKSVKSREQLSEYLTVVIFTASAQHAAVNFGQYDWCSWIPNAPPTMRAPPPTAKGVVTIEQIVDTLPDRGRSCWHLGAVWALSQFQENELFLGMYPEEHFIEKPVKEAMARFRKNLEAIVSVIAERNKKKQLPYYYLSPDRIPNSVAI
Assay: Inhibition of 5-lipoxygenase (5-LO) measured as LTB4 production in human whole blood stimulated with calcium ionophore (A23187).
pIC50: −log10 of the molar value.
Consider the following compounds and their measured pIC50 readings.

{"columns": ["compound", "subject-of-test", "pIC50"],
 "data": [
  ["CC(c1cc2c(Cl)cccc2s1)N(O)C(N)=O (stereo not drawn)", "Polyunsaturated fatty acid 5-lipoxygenase (Homo sapiens, UniProt P09917)", 5.60],
  ["CC(c1ccsc1)N(O)C(N)=O (stereo not drawn)", "Polyunsaturated fatty acid 5-lipoxygenase (Homo sapiens, UniProt P09917)", 5.62],
  ["CC(c1cc2ccccc2[nH]1)N(O)C(N)=O (stereo not drawn)", "Polyunsaturated fatty acid 5-lipoxygenase (Homo sapiens, UniProt P09917)", 5.82],
  ["CC(/C=C/c1ccoc1)N(O)C(N)=O (stereo not drawn)", "Polyunsaturated fatty acid 5-lipoxygenase (Homo sapiens, UniProt P09917)", 5.92],
  ["CC(C)(C#Cc1ccc(Oc2ccc(F)cc2)o1)N(O)C(N)=O", "Polyunsaturated fatty acid 5-lipoxygenase (Homo sapiens, UniProt P09917)", 6.82],
  ["CC(C1CC1c1ccoc1)N(O)C(N)=O (stereo not drawn)", "Polyunsaturated fatty acid 5-lipoxygenase (Homo sapiens, UniProt P09917)", 5.92],
  ["Cc1ccc(/C=C/CN(O)C(N)=O)o1", "Polyunsaturated fatty acid 5-lipoxygenase (Homo sapiens, UniProt P09917)", 6.80],
  ["NC(=O)N(O)CC#Cc1cccc(Oc2ccccc2)c1", "Polyunsaturated fatty acid 5-lipoxygenase (Homo sapiens, UniProt P09917)", 7.22],
  ["CC(c1ccc(-c2ccccc2)o1)N(O)C(N)=O (stereo not drawn)", "Polyunsaturated fatty acid 5-lipoxygenase (Homo sapiens, UniProt P09917)", 5.85],
  ["CC(CO/N=C/c1ccc(Oc2ccc(F)cc2)o1)N(O)C(N)=O (stereo not drawn)", "Polyunsaturated fatty acid 5-lipoxygenase (Homo sapiens, UniProt P09917)", 6.96],
  ["NC(=O)N(O)Cc1ccco1", "Polyunsaturated fatty acid 5-lipoxygenase (Homo sapiens, UniProt P09917)", 5.74],
  ["CC(c1ccc(-c2cccs2)s1)N(O)C(N)=O (stereo not drawn)", "Polyunsaturated fatty acid 5-lipoxygenase (Homo sapiens, UniProt P09917)", 5.51],
  ["CC(c1ccc(-c2ccccc2)s1)N(O)C(N)=O (stereo not drawn)", "Polyunsaturated fatty acid 5-lipoxygenase (Homo sapiens, UniProt P09917)", 5.85],
  ["NC(=O)N(O)CC1CCCCC1", "Polyunsaturated fatty acid 5-lipoxygenase (Homo sapiens, UniProt P09917)", 6.05],
  ["CC(c1ccc(Cc2ccccc2)s1)N(O)C(N)=O (stereo not drawn)", "Polyunsaturated fatty acid 5-lipoxygenase (Homo sapiens, UniProt P09917)", 6.17],
  ["NC(=O)N(O)Cc1sc2ccccc2c1Sc1ccccc1", "Polyunsaturated fatty acid 5-lipoxygenase (Homo sapiens, UniProt P09917)", 6.19],
  ["CC(c1ccccc1)N(O)C(N)=O (stereo not drawn)", "Polyunsaturated fatty acid 5-lipoxygenase (Homo sapiens, UniProt P09917)", 5.57],
  ["CC(c1cc2cccc(Cl)c2s1)N(O)C(N)=O (stereo not drawn)", "Polyunsaturated fatty acid 5-lipoxygenase (Homo sapiens, UniProt P09917)", 5.82],
  ["CC(c1nc2ccccc2s1)N(O)C(N)=O (stereo not drawn)", "Polyunsaturated fatty acid 5-lipoxygenase (Homo sapiens, UniProt P09917)", 6.28],
  ["Cc1cc(C(C)N(O)C(N)=O)c(C)o1 (stereo not drawn)", "Polyunsaturated fatty acid 5-lipoxygenase (Homo sapiens, UniProt P09917)", 5.74],
  ["CC(c1ccc(/C=C/c2ccccc2)s1)N(O)C(N)=O (stereo not drawn)", "Polyunsaturated fatty acid 5-lipoxygenase (Homo sapiens, UniProt P09917)", 6.15],
  ["NC(=O)N(O)CC1CC1c1ccco1 (stereo not drawn)", "Polyunsaturated fatty acid 5-lipoxygenase (Homo sapiens, UniProt P09917)", 6.01],
  ["Cc1ccc(C(C)N(O)C(N)=O)o1 (stereo not drawn)", "Polyunsaturated fatty acid 5-lipoxygenase (Homo sapiens, UniProt P09917)", 6.03],
  ["CC(C#Cc1cc2ccccc2s1)N(O)C(N)=O (stereo not drawn)", "Polyunsaturated fatty acid 5-lipoxygenase (Homo sapiens, UniProt P09917)", 5.77],
  ["CC(C#Cc1ccc(Oc2ccc(F)cc2)o1)N(O)C(N)=O (stereo not drawn)", "Polyunsaturated fatty acid 5-lipoxygenase (Homo sapiens, UniProt P09917)", 7.15],
  ["NC(=O)N(O)C/C=C/c1ccsc1", "Polyunsaturated fatty acid 5-lipoxygenase (Homo sapiens, UniProt P09917)", 6.26],
  ["NC(=O)N(O)CCO/N=C/c1ccc(Oc2ccc(F)cc2)o1", "Polyunsaturated fatty acid 5-lipoxygenase (Homo sapiens, UniProt P09917)", 7.22],
  ["NC(=O)N(O)Cc1cccc2c1oc1ccccc12", "Polyunsaturated fatty acid 5-lipoxygenase (Homo sapiens, UniProt P09917)", 5.44]
]}
